- Test system: ACHN
- Assay name: NCI tumour cell line growth inhibition, 48 h
The source made the active and inactive calls. No stated cut-off is given here; in the data, active = GI50 up to about 1.1 µM and inactive = higher.
Property label: GI50

// solved cases for GI50 follow
Compound	Property label	Data value
Cc1ccc(OCCn2cc(Nc3ccccc3)c(=O)[nH]c2=O)cc1	GI50	> 100 µM (inactive)
CC(=O)NC(NCCN)(c1ccccc1)c1ccccc1	GI50	> 100 µM (inactive)
Fc1ccc(C2NC(=S)NC3=C2CCOc2c3ccc3ccccc23)cc1 (centres undefined)	GI50	58.7 µM (inactive)
CC[C@]12C=CCN3CC[C@@]4(c5cc(Br)c(OC)cc5N(C)[C@H]4[C@@](O)(C(=O)N[C@@H](Cc4ccc(O)cc4)C(=O)OC)[C@@H]1O)[C@@H]32	GI50	27.6 µM (inactive)

State recorded GI50 for all listed compounds.
1. CSc1nc(C)cc(=O)n1C1OC(COC(C)=O)C(OC(C)=O)C(OC(C)=O)C1OC(C)=O (centres undefined)
2. COC(=O)/C=C\Sc1ccn(/C=C\C(=O)OC)c(=S)n1

Out:
1. > 100 µM (inactive)
2. 18.2 µM (inactive)

// for each compound in input: emit GI50
1. O=C(Oc1cc(=O)c(OC(=O)c2ccccc2)co1)c1ccccc1
2. CCOC(=O)CC(NC(=O)c1nc[nH]c1[N+](=O)[O-])C(=O)OCC (centres undefined)
3. O=C1C(Cl)=C(Cl)C(=O)C2=C1C1c3ccccc3C2c2ccccc21
4. CC(C)(CO)NC(=O)Nc1c(C(F)(F)F)cc(-c2ccccc2)[nH]c1=O

Out:
1. > 100 µM (inactive)
2. 42.2 µM (inactive)
3. 43.2 µM (inactive)
4. > 100 µM (inactive)

---

The reader will find log10 GI50 measurements below, all made with HCT-15.
Please keep in mind that the values are log10 of GI50 expressed in µM.

Compound	Target or test system	log10 GI50
O=C(CC1C(=O)Nc2ccccc2[S+]1[O-])Nc1cccc(Cl)c1 (stereo not given)	HCT-15	1.43
CCOC(=O)c1nc2ccc(C(F)(F)F)cc2nc1NCc1ccc(F)cc1	HCT-15	1.47
Clc1ccc(Cc2nc3cc(Cl)ccc3o2)cc1	HCT-15	1.47
N#Cc1sc2c(c1OC(=O)c1cccs1)c(=O)n(-c1ccccc1)c(=S)n2-c1ccccc1	HCT-15	1.24
CCn1c2ccccc2c2ccc(C3C4C(=O)N(c5cccc6ccccc56)C(=O)C4ON3C(C(N)=O)c3ccccc3)cc21 (stereo not given)	HCT-15	1.12
CCOP(=O)(OCC)C(Cc1ccccc1)N=C(c1ccccc1)c1ccccc1 (stereo not given)	HCT-15	1.08
C=C(C)C1CC2C(C)=C(OC(C)=O)C1n1c(=O)c3cc4ccccc4cc3c(=O)n12 (stereo not given)	HCT-15	1.76
O=C1O[C@H]2[C@H](OC(=O)c3cc(O)c(O)c(O)c3)[C@@H](OC(=O)c3cc(O)c(O)c4c3[C@@H]3C1=CC(=O)C(O)(O)C3(O)O4)[C@H](OC(=O)c1cc(O)c(O)c(O)c1)O[C@@H]2COC(=O)c1cc(O)c(O)c(O)c1 (stereo not given in full) [TERCHEBIN]	HCT-15	1.56

Hey, quick one: what's log10 GI50 for each of these?
1. Nc1ccc2c(SCC(=O)Nc3ccccc3-c3ccccc3NC(=O)CSc3c4ccccc4nc4cc(N)ccc34)c3ccccc3nc2c1
2. C=C1CC(COc2ccc3ccc(=O)oc3c2)(c2ccccc2)OC1=O (stereo not given)
3. CC1(C)CC2(C)ON=C(c3ccccc3)N2c2ccccc2N1 (stereo not given)

Out:
1: 1.49; 2: 0.27; 3: 1.47

# per-item lookup of log10 GI50; items listed below
1. C/C(=N\NC(=[Se])N1CCN(c2ccccn2)CC1)c1ccccn1
2. CCCCCCCCCC[S+]([O-])CC(CO)NC(=O)/C=C/c1c(C)nc(O)nc1O (stereo not given)
3. CC(C)C1/C(=N/O)CC(c2ccccc2)N(N=O)C1c1ccccc1 (stereo not given)

Out:
-2.00
0.11
1.61
